Measured values drawn from patent US6413935B1 for this set.

assayed target: DR2w2a (Homo sapiens, UniProt P01903+Q30154)
Sequence (P01903 26-254): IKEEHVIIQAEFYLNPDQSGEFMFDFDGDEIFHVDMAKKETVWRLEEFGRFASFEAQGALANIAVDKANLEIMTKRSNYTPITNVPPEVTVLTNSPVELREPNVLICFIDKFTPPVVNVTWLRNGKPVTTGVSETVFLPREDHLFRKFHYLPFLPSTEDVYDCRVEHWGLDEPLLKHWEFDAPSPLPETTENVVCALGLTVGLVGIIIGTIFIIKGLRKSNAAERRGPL
Sequence (Q30154 30-266): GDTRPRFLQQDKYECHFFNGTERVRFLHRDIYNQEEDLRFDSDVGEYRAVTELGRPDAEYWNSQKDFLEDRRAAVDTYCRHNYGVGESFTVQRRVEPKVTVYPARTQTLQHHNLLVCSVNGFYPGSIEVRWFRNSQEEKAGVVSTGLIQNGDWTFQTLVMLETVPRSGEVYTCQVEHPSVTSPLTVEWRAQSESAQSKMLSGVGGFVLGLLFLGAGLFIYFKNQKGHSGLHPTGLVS
assay notes: biochemical
settings: PADRE Class II Binding Affinities DR2w282, Table IX

| molecule | IC50 (nM) |
| --- | --- |
| CC(C)C[C@H](NC(=O)[C@@H](NC(=O)[C@H](Cc1ccc(O)cc1)NC(=O)[C@H](C)NC(=O)[C@H](Cc1c[nH]c2ccccc12)NC(=O)[C@@H](NC(=O)[C@H](CC1CCCCC1)NC(=O)[C@H](CCCCN)NC(=O)[C@@H](C)N)C(C)C)[C@@H](C)O)C(=O)N[C@@H](CCCCN)C(=O)N[C@@H](C)C(=O)N[C@@H](C)C(=O)N[C@H](C)C(N)=O [Peptide 965.041] | 2.5 |
| CC(C)C[C@H](NC(=O)[C@@H](NC(=O)[C@H](Cc1c[nH]cn1)NC(=O)[C@H](C)NC(=O)[C@H](C)NC(=O)[C@@H](NC(=O)[C@H](CC1CCCCC1)NC(=O)[C@H](CCCCN)NC(=O)[C@@H](C)N)C(C)C)[C@@H](C)O)C(=O)N[C@@H](CCCCN)C(=O)N[C@@H](C)C(=O)N[C@@H](C)C(=O)N[C@H](C)C(N)=O [Peptide 955.15] | 5.4 |
| CSCC[C@H](NC(=O)[C@@H](NC(=O)[C@H](CC1CCCCC1)NC(=O)[C@H](CCCCN)NC(=O)[C@@H](C)NC(=O)[C@H](CO)NC(=O)[C@H](CO)NC(=O)[C@@H](N)CCCCN)C(C)C)C(=O)N[C@@H](C)C(=O)N[C@@H](C)C(=O)N[C@H](C(=O)N[C@@H](CC(C)C)C(=O)N[C@@H](CCCCN)C(=O)N[C@@H](C)C(=O)N[C@@H](C)C(=O)N[C@H](C)C(N)=O)[C@@H](C)O [Peptide 965.19] | 23.5 |
| CC(C)C[C@H](NC(=O)[C@@H](NC(=O)[C@@H](NC(=O)[C@H](C)NC(=O)[C@H](Cc1c[nH]c2ccccc12)NC(=O)[C@@H](NC(=O)[C@H](CC1CCCCC1)NC(=O)[C@H](CCCCN)NC(=O)[C@@H](C)N)C(C)C)C(C)C)[C@@H](C)O)C(=O)N[C@@H](CCCCN)C(=O)N[C@@H](C)C(=O)N[C@@H](C)C(=O)N[C@H](C)C(N)=O [Peptide 965.042] | 9.5 |
| CC(C)C[C@H](NC(=O)[C@@H](NC(=O)[C@H](CC(N)=O)NC(=O)[C@H](C)NC(=O)[C@H](CCCNC(=N)N)NC(=O)[C@@H](NC(=O)[C@H](CC1CCCCC1)NC(=O)[C@H](CCCNC(=N)N)NC(=O)[C@@H](C)N)C(C)C)[C@@H](C)O)C(=O)N[C@@H](CCCCN)C(=O)N[C@@H](C)C(=O)N[C@@H](C)C(=O)N[C@H](C)C(N)=O [Peptide 965.06] | 6.4 |

----------
assayed target: DR2w2a (Homo sapiens, UniProt P01903+Q30154)
settings: read-out: Binding capacity DR2w2a, IC50
No end group written: not given here.
quantity name: IC50 (nM)

| residue string | quantity name | measured |
| --- | --- | --- |
| YSGPLKAEIAQRLEDV [MT (Y)17-31, reference compound] | IC50 | 350 |
